# experimental-system: T1, rKv1.1N (Rattus norvegicus, UniProt P10499)
# T1 construct: expressed in transfected cells; host or cells: yeast HF7c (baits), mated with Y187 (fish)
# T1 sequence (P10499 1-164 limits assumed): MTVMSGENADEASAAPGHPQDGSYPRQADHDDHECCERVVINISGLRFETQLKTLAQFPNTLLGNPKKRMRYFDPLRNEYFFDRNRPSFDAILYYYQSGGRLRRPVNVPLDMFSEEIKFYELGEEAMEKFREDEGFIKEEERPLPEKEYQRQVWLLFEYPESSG
# test-details: Yeast two-hybrid binding and specificity test, Kv1.1 N-terminal bait
property: binding to rKv1.1N in yeast two-hybrid assay

{"molecule": "Rat 7q: identical to RAB2 (rat RAS-related protein) (protein) MAYAYLFKYIIIGDTGVGKSCLLLQFTDKRFQPVHDLTIGVEFGARMITIDGKQIKLQIWDTAGQESFRSITRSYYRGAAGALLVYDITRRDTFNHLTTWLEDARQHSNSNMVIMLIGNKSDLESRREVKKEEGEAFAREHGLIFMETSAKTASNVEEAFINTAKEIYEKIQEGVFDINNEANGIKIGPQHAATNASHGGNQGGQQAGGGCC", "result": "does not bind"}
{"molecule": "Rat 19r: identical to Rat phosphatidylinositol (PTDINS) transfer protein alpha (protein) MVLLKEYRVILPVSVDEYQVGQLYSVAEASKNETGGGEGVEVLVNEPYEKDDGEKGQYTHKIYHLQSKVPTFVRMLAPEGALNIHEKAWNAYPYCRTVITNEYMKEDFLIKIETWHKPDLGTQENVHKLEPEAWKHVEAIYIDIADRSQVLSKDYKAEEDPAKFKSIKTGRGPLGPNWKQELVNQKDCPYMCAYKLVTVKFKWWGLQNKVENFIHKQEKRLFTNFHRQLFCWLDKWVDLTMDDIRRMEEETKRQLDEMRQKDPVKGMTADD", "result": "does not bind"}
